Entries and their half-life at 1000 µM values follow.
assay: Half life in rat plasma at 1 mM by UPLC-MS analysis; type: ADME, cell-free
Positions of bridges follow the written chain, without caps; N, C: chain ends. Non-standard residues stand in square brackets, D forms with d. Residues, ends and D or L forms follow the SMILES beside them. AllylGly = C=CC[C@H](N)C(=O)O; pGlu = O=C1CC[C@@H](C(=O)O)N1; Nle = CCCC[C@H](N)C(=O)O

COMPOUND: CCCC[C@H](NC(=O)[C@@H]1CCCN1C(=O)CNC(=O)[C@H](CCCCN)NC(=O)[C@H](Cc1cnc[nH]1)NC(=O)[C@@H]1C/C=C\C[C@H](NC(=O)[C@@H]2CCC(=O)N2)C(=O)N2CCC[C@H]2C(=O)N[C@@H](CCCNC(=N)N)C(=O)N[C@@H](CC(C)C)C(=O)N1)C(=O)N1CCC[C@H]1C(=O)N[C@@H](Cc1ccccc1)C(=O)O
half-life at 1000 µM / h: 0.7
--
COMPOUND: CCCC[C@H](NC(=O)[C@@H]1CCCN1C(=O)CNC(=O)[C@H](CCCCN)NC(=O)[C@@H]1C/C=C\C[C@H](NC(=O)[C@H](CCCNC(=N)N)NC(=O)[C@@H]2CCC(=O)N2)C(=O)N[C@@H](CCCNC(=N)N)C(=O)N[C@@H](CC(C)C)C(=O)N[C@@H](CO)C(=O)N1)C(=O)N1CCC[C@H]1C(=O)N[C@@H](Cc1ccccc1)C(=O)O
half-life at 1000 µM / h: 3.9
--
COMPOUND: CC(C)C[C@H](NC(=O)[C@H](CCCNC(=N)N)NC(=O)[C@@H]1CCCN1C(=O)[C@H](CCCNC(=N)N)NC(=O)[C@@H]1CCC(=O)N1)C(=O)N[C@@H](CO)C(=O)N[C@H]1C/C=C\C[C@@H](C(=O)N2CCC[C@H]2C(=O)N[C@@H](Cc2ccccc2)C(=O)O)NC(=O)[C@@H]2CCCN2C(=O)CNC(=O)[C@H](CCCCN)NC1=O ([pGlu]RPRLS[AllylGly]KGP[AllylGly]PF-OH; staple (Z) 7-11)
half-life at 1000 µM / h: 6.6
--
COMPOUND: CCCC[C@@H]1NC(=O)[C@@H]2CCCN2C(=O)[C@@H](NC(=O)[C@H](CCCCN)NC(=O)[C@H](Cc2cnc[nH]2)NC(=O)[C@H](CO)NC(=O)[C@H](CC(C)C)NC(=O)[C@H](CCCNC(=N)N)NC(=O)[C@@H]2CCCN2C(=O)[C@H](CCCNC(=N)N)NC(=O)[C@@H]2CCC(=O)N2)CCN(S(=O)(=O)c2ccccc2[N+](=O)[O-])C/C=C\C[C@@H](C(=O)O)NC(=O)[C@@H]2CCCN2C1=O
half-life at 1000 µM / h: 6.8
--
COMPOUND: C=CC[C@H](NC(=O)[C@@H]1CCCN1C(=O)[C@H](CCCC)NC(=O)[C@@H]1CCCN1C(=O)[C@H](CC=C)NC(=O)[C@H](CCCCN)NC(=O)[C@H](Cc1cnc[nH]1)NC(=O)[C@H](CO)NC(=O)[C@H](CC(C)C)NC(=O)[C@H](CCCNC(=N)N)NC(=O)[C@@H]1CCCN1C(=O)[C@H](CCCNC(=N)N)NC(=O)[C@@H]1CCC(=O)N1)C(=O)O ([pGlu]RPRLSHK[AllylGly]P[Nle]P[AllylGly]-OH)
half-life at 1000 µM / h: 2.4
--
COMPOUND: CCCC[C@H](NC(=O)[C@@H]1CCCN1C(=O)CNC(=O)[C@H](CCCCN)NC(=O)[C@H](Cc1cnc[nH]1)NC(=O)[C@H](CO)NC(=O)[C@@H]1C/C=C\C[C@H](N)C(=O)N[C@@H](CCCNC(=N)N)C(=O)N2CCC[C@H]2C(=O)N[C@@H](CCCNC(=N)N)C(=O)N1)C(=O)N1CCC[C@H]1C(=O)N[C@@H](Cc1ccccc1)C(=O)O
half-life at 1000 µM / h: 0.8
